Biological target: COUP transcription factor 2 (Homo sapiens);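 note: HEK293 cells transiently cotransfected with COUP-TFII expression vector and reporter; luciferase reporter luminescence driven by COUP-TFII from the pX2-168 reporter plasmid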
Sequence (P24468 whole entry): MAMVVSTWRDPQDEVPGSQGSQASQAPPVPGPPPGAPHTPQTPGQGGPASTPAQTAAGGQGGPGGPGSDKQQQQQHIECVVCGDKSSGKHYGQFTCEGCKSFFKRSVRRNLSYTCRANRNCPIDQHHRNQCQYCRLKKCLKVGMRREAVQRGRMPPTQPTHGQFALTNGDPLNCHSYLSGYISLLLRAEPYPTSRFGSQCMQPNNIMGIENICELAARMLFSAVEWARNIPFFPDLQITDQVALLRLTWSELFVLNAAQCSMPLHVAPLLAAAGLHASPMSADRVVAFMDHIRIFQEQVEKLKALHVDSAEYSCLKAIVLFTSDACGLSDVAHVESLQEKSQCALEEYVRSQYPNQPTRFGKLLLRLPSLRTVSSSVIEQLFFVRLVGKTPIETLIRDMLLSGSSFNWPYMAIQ
Test: Luminescence-based cell-based high throughput dose response assay to identify inhibitors of COUP-TFII (NR2F2).
Assay type: functional
The source made the active and inactive calls.
Possible outcomes: 1 for active, -1 for inactive

>>> label("Cc1ccc(S(=O)(=O)NCc2ccncc2)c(C)c1C")
1
>>> label("Cc1cc(NC2CCCC2)n2ncc(-c3ccccc3)c2n1")
-1
>>> label("Cc1ccc(OCCN2CCN(c3ncnc4sc(C)c(C)c34)CC2)cc1")
1
>>> label("CCCCCCn1c2c(c(=N)c3c1CCC3)CCC2")
1

====

Assay: fluconazole-exposed Candida albicans growth modulators – fluorescence, retest, confirmation (AID 2467)
Type: functional, cell-based
Activity calls are given as the source filed them.
property.label: EC50

>>> observed_measurement("Oc1nc(Nc2ccc3c(c2)OCCO3)nnc1Cc1ccccc1")
"> 38 µM (not active)"
>>> observed_measurement("COc1cc2nc(SCc3ccc(Cl)cc3Cl)n(Cc3cccs3)c(=N)c2cc1OC")
"> 38 µM (not active)"
>>> observed_measurement("COc1ccccc1-n1c(C)cc(SC)c(C(C)=O)c1=S")
"14 µM (active)"
>>> observed_measurement("CC(C)n1c(N2CCN(C(=O)Nc3ccc(Cl)cc3)CC2)nc2ccccc21")
"> 38 µM (not active)"
>>> observed_measurement("C/C(=N\\NC(=O)c1cc(-c2cccs2)nc2ccccc12)c1ccccn1")
"1.19 µM (active)"
>>> observed_measurement("O=Cc1cc(N=Nc2ccccc2Cl)ccc1O")
"> 38 µM (not active)"
>>> observed_measurement("Cc1nnc(NC(=O)CSc2ncnc3c2cnn3-c2ccccc2C)s1")
"0.573 µM (active)"
>>> observed_measurement("COc1ccccc1N=Nc1ccc(O)c2ncccc12")
"1.28 µM (active)"

====

Each entry below carries its reported AC50.
Target: Cytochrome P450 2C19 (Homo sapiens, UniProt P33261)
Sequence (P33261 whole entry): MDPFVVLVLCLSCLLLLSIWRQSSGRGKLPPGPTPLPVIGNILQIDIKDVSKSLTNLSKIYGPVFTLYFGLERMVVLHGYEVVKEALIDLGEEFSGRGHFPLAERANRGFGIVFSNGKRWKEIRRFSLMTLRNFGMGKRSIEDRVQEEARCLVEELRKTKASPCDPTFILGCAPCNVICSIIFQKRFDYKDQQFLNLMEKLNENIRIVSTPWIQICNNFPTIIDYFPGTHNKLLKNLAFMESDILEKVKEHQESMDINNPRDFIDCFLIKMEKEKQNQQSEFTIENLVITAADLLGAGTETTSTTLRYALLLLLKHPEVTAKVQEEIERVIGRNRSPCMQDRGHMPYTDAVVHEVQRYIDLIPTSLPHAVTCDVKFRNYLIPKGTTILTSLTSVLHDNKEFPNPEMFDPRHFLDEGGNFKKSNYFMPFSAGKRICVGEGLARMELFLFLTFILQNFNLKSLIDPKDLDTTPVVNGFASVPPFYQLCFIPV
Experiment: Cytochrome panel assay with activity outcomes. Panel member name: p450-cyp2c19 Compounds with AC50 equal or less than 10 uM are considered active
Format: functional
Details: read-out: AC50
property.label: AC50

>>> observed_measurement("Cc1ccc(-[n+]2c(-c3ccc(Br)cc3)cn3c2CCc2ccc4cccnc4c2-3)cc1")
"28.2 µM (inconclusive)"
>>> observed_measurement("O=C(CN1C(=O)NC2(CCCCCC2)C1=O)N1CCN(S(=O)(=O)c2ccc(Cl)cc2)CC1")
"20 µM (inconclusive)"
>>> observed_measurement("COc1ccccc1-c1cc(C(F)(F)F)nc(S(=O)(=O)CCCC(=O)NC(C)C)n1")
"6.31 µM (inconclusive)"
>>> observed_measurement("CC(C)C(NC(=O)C1CCCCC1)C(=O)NC1CCN(Cc2ccccc2)CC1 (centres undefined)")
"3.55 µM (inconclusive)"
